Just for reference, PubChem BioAssay AID1963828 is where these values come from.

# Tested on: 991263-137-R1-J2-PDC complex spheroid viability
# experimentNotes: Anticancer human tumor 991263-137-R1-J2-PDC patient-derived colon adenocarcinoma cell line growth inhibition [POLQ]
# assayContext: second compound 0.316 µM; first compound 0.000316 µM; stronger effect = lower value
resultType: viability, T/C (%)
Express the result in % but write the number alone.

Completed entries (count: 2):
compound	readingUnit	viability, T/C
Cn1ncnc1[C@H]1c2n[nH]c(=O)c3cc(F)cc(c23)N[C@@H]1c1ccc(F)cc1 + Cc1cccc(N(C)C(=O)C2C(O)CCN2c2nc(C)cc(C(F)(F)F)c2C#N)c1	%	97.9
Cn1ncnc1[C@H]1c2n[nH]c(=O)c3cc(F)cc(c23)N[C@@H]1c1ccc(F)cc1 + COC1C(OC(N)=O)C(O)C(Oc2ccc3c(O)c(NC(=O)c4ccc(O)c(CC=C(C)C)c4)c(=O)oc3c2C)OC1(C)C	%	95

Here is the next item to consider.
IN: Find the recorded viability, T/C belonging to Cn1ncnc1[C@H]1c2n[nH]c(=O)c3cc(F)cc(c23)N[C@@H]1c1ccc(F)cc1 + Nc1ccc(C#CCN(C(=O)Cc2ncc(C(F)(F)F)cc2C(F)(F)F)c2ccc(F)cc2)nn1 and report it.
OUT: 93.7

* * *

# System: 991263-137-R1-J2-PDC complex spheroid viability
# experimentNotes: Anticancer human tumor 991263-137-R1-J2-PDC cell line growth inhibition [POLQ];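 further: spheroids exposed to compounds for 7 days before readout; 100% = DMSO vehicle control viability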
# assayContext: second compound 1 µM; first compound 0.0316 µM; stronger effect = lower value
The following compounds are listed with their measured viability, T/C values.
Express the result in % but write the number alone.

compound	targetOfAssay	viability, T/C [%]
CC[C@@]1(O)C(=O)OCc2c1cc1n(c2=O)Cc2cc3c(CN(C)C)c(O)ccc3nc2-1 + Nc1ccc(C#CCN(C(=O)Cc2ncc(C(F)(F)F)cc2C(F)(F)F)c2ccc(F)cc2)nn1	991263-137-R1-J2-PDC complex spheroid viability	101
COc1cccc(OCCCN)c1-c1cc(Nc2cnc(C#N)cn2)n[nH]1 + Nc1ccc(C#CCN(C(=O)Cc2ncc(C(F)(F)F)cc2C(F)(F)F)c2ccc(F)cc2)nn1	991263-137-R1-J2-PDC complex spheroid viability	89.4
Nc1ccn(C2OC(CO)C(O)C2(F)F)c(=O)n1 (stereo unspecified) + Cc1cccc(N(C)C(=O)C2C(O)CCN2c2nc(C)cc(C(F)(F)F)c2C#N)c1	991263-137-R1-J2-PDC complex spheroid viability	75.6
COc1cc2cc(C(=O)CCC(=O)O)sc2cc1OC + COC1C(OC(N)=O)C(O)C(Oc2ccc3c(O)c(NC(=O)c4ccc(O)c(CC=C(C)C)c4)c(=O)oc3c2C)OC1(C)C	991263-137-R1-J2-PDC complex spheroid viability	108
CC[C@@]1(O)C(=O)OCc2c1cc1n(c2=O)Cc2cc3c(CN(C)C)c(O)ccc3nc2-1 + Cc1cccc(N(C)C(=O)C2C(O)CCN2c2nc(C)cc(C(F)(F)F)c2C#N)c1	991263-137-R1-J2-PDC complex spheroid viability	110

IN: Find the recorded viability, T/C belonging to Cn1ncnc1[C@H]1c2n[nH]c(=O)c3cc(F)cc(c23)N[C@@H]1c1ccc(F)cc1 + Nc1ccc(C#CCN(C(=O)Cc2ncc(C(F)(F)F)cc2C(F)(F)F)c2ccc(F)cc2)nn1 and report it.
OUT: 104

IN: And for CNCc1ccc(-c2[nH]c3cc(F)cc4c3c2CCNC4=O)cc1 + Cc1cccc(N(C)C(=O)C2C(O)CCN2c2nc(C)cc(C(F)(F)F)c2C#N)c1 ?
OUT: 115

* * *

# System: 991263-137-R1-J2-PDC complex spheroid viability
# experimentNotes: Anticancer human tumor 991263-137-R1-J2-PDC cell line growth inhibition [POLQ];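 further: spheroids exposed to compounds for 7 days before readout; 100% = DMSO vehicle control viability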
# assayContext: second compound 0.1 µM; first compound 3.16 µM; stronger effect = lower value
resultType: viability, T/C (%)
Express the result in % but write the number alone.

Completed entries (count: 9):
compound	readingUnit	viability, T/C
COc1cc2cc(C(=O)CCC(=O)O)sc2cc1OC + Cc1cccc(N(C)C(=O)C2C(O)CCN2c2nc(C)cc(C(F)(F)F)c2C#N)c1	%	95.7
CC1COCCN1c1cc(C2(S(C)(=N)=O)CC2)nc(-c2ccnc3[nH]ccc23)n1 (stereo not given) + Cc1cccc(N(C)C(=O)C2C(O)CCN2c2nc(C)cc(C(F)(F)F)c2C#N)c1	%	117
CCc1cc2c(N3CCc4c(cc(Cn5ccnc5)cc4-c4cn(C)nc4C(F)(F)F)C3=O)ccnc2c(OC)n1 + Cc1cccc(N(C)C(=O)C2C(O)CCN2c2nc(C)cc(C(F)(F)F)c2C#N)c1	%	96.7
CC1COCCN1c1cc(C2(O)CC3CCC(C2)O3)c2cnn(-c3ccn[nH]3)c2n1 (stereo not given) + COC1C(OC(N)=O)C(O)C(Oc2ccc3c(O)c(NC(=O)c4ccc(O)c(CC=C(C)C)c4)c(=O)oc3c2C)OC1(C)C	%	39
CCc1cc2c(N3CCc4c(cc(Cn5ccnc5)cc4-c4cn(C)nc4C(F)(F)F)C3=O)cc(C)nc2c(OC)n1 + Cc1cccc(N(C)C(=O)C2C(O)CCN2c2nc(C)cc(C(F)(F)F)c2C#N)c1	%	98
CCc1cc2c(N3CCc4c(cc(Cn5ccnc5)cc4-c4cn(C)nc4C(F)(F)F)C3=O)ccnc2c(OC)n1 + COC1C(OC(N)=O)C(O)C(Oc2ccc3c(O)c(NC(=O)c4ccc(O)c(CC=C(C)C)c4)c(=O)oc3c2C)OC1(C)C	%	90.8
CCCS(=O)(=O)Nc1ccc(F)c(C(=O)c2c[nH]c3ncc(-c4ccc(Cl)cc4)cc23)c1F + Nc1ccc(C#CCN(C(=O)Cc2ncc(C(F)(F)F)cc2C(F)(F)F)c2ccc(F)cc2)nn1	%	103
CCCS(=O)(=O)Nc1ccc(F)c(C(=O)c2c[nH]c3ncc(-c4ccc(Cl)cc4)cc23)c1F + Cc1cccc(N(C)C(=O)C2C(O)CCN2c2nc(C)cc(C(F)(F)F)c2C#N)c1	%	106
CCc1cc2c(N3CCc4c(cc(Cn5ccnc5)cc4-c4cn(C)nc4C(F)(F)F)C3=O)cc(C)nc2c(OC)n1 + COC1C(OC(N)=O)C(O)C(Oc2ccc3c(O)c(NC(=O)c4ccc(O)c(CC=C(C)C)c4)c(=O)oc3c2C)OC1(C)C	%	106

IN: Find the recorded viability, T/C belonging to COc1cccc2c1C(=O)c1c(O)c3c(c(O)c1C2=O)CC(O)(C(=O)CO)CC3OC1CC(N)C(O)C(C)O1 (stereo not given) + Cc1cccc(N(C)C(=O)C2C(O)CCN2c2nc(C)cc(C(F)(F)F)c2C#N)c1 and report it.
OUT: 46.2

* * *

# Tested on: 991263-137-R1-J2-PDC complex spheroid viability
# experimentNotes: Anticancer human tumor 991263-137-R1-J2-PDC cell line growth inhibition [POLQ];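 further: spheroids exposed to compounds for 7 days before readout; 100% = DMSO vehicle control viability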
# assayContext: second compound 10 µM; first compound 1 µM; stronger effect = lower value
resultType: viability, T/C (%)
Express the result in % but write the number alone.

Completed entries (count: 3):
molecule	viability, T/C (%)
CCCS(=O)(=O)Nc1ccc(F)c(C(=O)c2c[nH]c3ncc(-c4ccc(Cl)cc4)cc23)c1F + Cc1cccc(N(C)C(=O)C2C(O)CCN2c2nc(C)cc(C(F)(F)F)c2C#N)c1	92.5
COc1cccc(OCCCN)c1-c1cc(Nc2cnc(C#N)cn2)n[nH]1 + COC1C(OC(N)=O)C(O)C(Oc2ccc3c(O)c(NC(=O)c4ccc(O)c(CC=C(C)C)c4)c(=O)oc3c2C)OC1(C)C	37.9
COc1cccc(OCCCN)c1-c1cc(Nc2cnc(C#N)cn2)n[nH]1 + Cc1cccc(N(C)C(=O)C2C(O)CCN2c2nc(C)cc(C(F)(F)F)c2C#N)c1	46.5

IN: For 991263-137-R1-J2-PDC complex spheroid viability, provide viability, T/C of CC1COCCN1c1cc(C2(O)CC3CCC(C2)O3)c2cnn(-c3ccn[nH]3)c2n1 (stereo unspecified) + Cc1cccc(N(C)C(=O)C2C(O)CCN2c2nc(C)cc(C(F)(F)F)c2C#N)c1 please.
OUT: 48.2

IN: And for CC1COCCN1c1cc(-c2ccnn2C)c2ccnc(-c3ccn[nH]3)c2n1 (stereo unspecified) + Cc1cccc(N(C)C(=O)C2C(O)CCN2c2nc(C)cc(C(F)(F)F)c2C#N)c1 ?
OUT: 46

IN: And for O=c1[nH]cc(F)c(=O)[nH]1 + COC1C(OC(N)=O)C(O)C(Oc2ccc3c(O)c(NC(=O)c4ccc(O)c(CC=C(C)C)c4)c(=O)oc3c2C)OC1(C)C ?
OUT: 83.7

IN: And for COc1cccc(OCCCN)c1-c1cc(Nc2cnc(C#N)cn2)n[nH]1 + Nc1ccc(C#CCN(C(=O)Cc2ncc(C(F)(F)F)cc2C(F)(F)F)c2ccc(F)cc2)nn1 ?
OUT: 44.2

IN: And for COc1cccc2c1C(=O)c1c(O)c3c(c(O)c1C2=O)CC(O)(C(=O)CO)CC3OC1CC(N)C(O)C(C)O1 (stereo unspecified) + COC1C(OC(N)=O)C(O)C(Oc2ccc3c(O)c(NC(=O)c4ccc(O)c(CC=C(C)C)c4)c(=O)oc3c2C)OC1(C)C ?
OUT: 50.1

IN: And for CCc1cc2c(N3CCc4c(cc(Cn5ccnc5)cc4-c4cn(C)nc4C(F)(F)F)C3=O)cc(C)nc2c(OC)n1 + Cc1cccc(N(C)C(=O)C2C(O)CCN2c2nc(C)cc(C(F)(F)F)c2C#N)c1 ?
OUT: 90.7

IN: And for CC(C)n1c(=O)n(C)c2cnc3cc(F)c(-c4ccc(OCCCN5CCCCC5)nc4)cc3c21 + Cc1cccc(N(C)C(=O)C2C(O)CCN2c2nc(C)cc(C(F)(F)F)c2C#N)c1 ?
OUT: 80.1

IN: And for COc1cccc2c1C(=O)c1c(O)c3c(c(O)c1C2=O)CC(O)(C(=O)CO)CC3OC1CC(N)C(O)C(C)O1 (stereo unspecified) + Nc1ccc(C#CCN(C(=O)Cc2ncc(C(F)(F)F)cc2C(F)(F)F)c2ccc(F)cc2)nn1 ?
OUT: 39.3
